Below: a set of entries, each annotated with reported Lesion outbreak rate.
system: pepper phytophthora blight (Phytopthora capsici); test: Suppression of pepper phytophthora blight on leaves; type: in vivo; conditions: pepper leaves, 1.0 ppm
Square brackets hold non-standard residues; d marks the D form. Peptide text beside a SMILES is read from it. * marks the point of attachment. Trt = c1ccc(C(c2ccccc2)(c2ccccc2)*)cc1; Boc = CC(C)(C)OC(=O)*; Bz = O=C(c1ccccc1)*; OBn = c1ccc(CO*)cc1; OAll = C=CCO*
quantity kind: Lesion outbreak rate (area %)

compound="C=CCOC(=O)C[C@H](N)C(=O)N[C@@H](Cc1ccccc1)C(=O)OC [Compound 93] (H-Asp(OAll)-Phe-OMe)" recorded_value=23
compound="CCOC(=O)[C@H](Cc1ccccc1)NC(=O)[C@H](CC(C)C)NC(=O)OC(C)(C)C [Compound 83] (Boc-Leu-Phe-OEt)" recorded_value=57
compound="COC(=O)C[C@H](N)C(=O)N[C@@H](Cc1ccccc1)C(=O)OC [Compound 91] (H-Asp(OMe)-Phe-OMe)" recorded_value=24
compound="COC(=O)[C@H](C)NC(=O)[C@@H](N)C(C)C [Compound 108] (H-Val-Ala-OMe)" recorded_value=18
compound="COC(=O)[C@H](Cc1ccccc1)NC(=O)[C@H](CC(=O)OCc1ccccc1)NC(=O)OC(C)(C)C [Compound 94] (Boc-Asp(OBn)-Phe-OMe)" recorded_value=6.8
compound="COC(=O)[C@@H](NC(=O)CNC(=O)OC(C)(C)C)C(C)C [Compound 87] (Boc-Gly-Val-OMe)" recorded_value=36
compound="COC(=O)CNC(=O)[C@@H]1CCCN1C(C)=O [Compound 105] (Ac-Pro-Gly-OMe)" recorded_value=21
compound="COC(=O)CNC(=O)[C@@H](NC(C)=O)C(C)C [Compound 103] (Ac-Val-Gly-OMe)" recorded_value=28
compound="COC(=O)C[C@H](NC(=O)c1ccccc1)C(=O)N[C@@H](Cc1ccccc1)C(=O)OC [Compound 97] (Bz-Asp(OMe)-Phe-OMe)" recorded_value=25
compound="C=CCOC(=O)C[C@H](NC(=O)OC(C)(C)C)C(=O)N[C@@H](Cc1ccccc1)C(=O)OC [Compound 92] (Boc-Asp(OAll)-Phe-OMe)" recorded_value=38
compound="COC(=O)[C@H](Cc1ccccc1)NC(=O)[C@H](CC(=O)OCc1ccccc1)NC(C)=O [Compound 100] (Ac-Asp(OBn)-Phe-OMe)" recorded_value=21
compound="COC(=O)CNC(=O)[C@H](CC(C)C)NC(C)=O [Compound 104] (Ac-Leu-Gly-OMe)" recorded_value=18
compound="COC(=O)[C@@H]1CCCN1C(=O)[C@@H](CSC(c1ccccc1)(c1ccccc1)c1ccccc1)NC(=O)OC(C)(C)C [Compound 77] (Boc-[dC](Trt)-Pro-OMe)" recorded_value=36
compound="COC(=O)[C@@H]1CCCN1C(=O)[C@@H](N)Cc1c[nH]c2ccccc12 [Compound 107] (H-Trp-Pro-OMe)" recorded_value=3.5

* * *

tested on: tobacco bacterial rot (Pectobacterium carotovorum); assay: Suppression of tobacco bacterial rot; type: in vivo, Pectobacterium carotovorum SCC1; conditions: Table 5, tobacco, 100 ppm
Square brackets hold non-standard residues; d marks the D form. Peptide text beside a SMILES is read from it. * marks the point of attachment. ξ: configuration not given here. dIle(3ξ) = CCC(C)[C@@H](N)C(=O)O; Boc = CC(C)(C)OC(=O)*
Each entry below carries its recorded Lesion outbreak rate.
quantity kind: Lesion outbreak rate (%)

compound="COC(=O)C1CCCN1C(=O)C(NC(=O)OC(C)(C)C)C(C)O (stereo not drawn) [Compound 47] (Boc-Thr-Pro-OMe; configuration not given here)" target_of_assay="tobacco bacterial rot (Pectobacterium carotovorum)" recorded_value=50
compound="CCC(C)[C@@H](NC(=O)OC(C)(C)C)C(=O)N1CCC[C@H]1C(=O)OC (some centres unmarked) [Compound 58] (Boc-[dIle(3ξ)]-Pro-OMe)" target_of_assay="tobacco bacterial rot (Pectobacterium carotovorum)" recorded_value=13
compound="COC(=O)[C@@H]1CCCN1C(=O)[C@@H](Cc1c[nH]c2ccccc12)NC(=O)OC(C)(C)C [Compound 52] (Boc-[dW]-Pro-OMe)" target_of_assay="tobacco bacterial rot (Pectobacterium carotovorum)" recorded_value=25
compound="COC(=O)[C@@H]1CCCN1C(=O)[C@@H](Cc1ccc(O)cc1)NC(=O)OC(C)(C)C [Compound 53] (Boc-[dY]-Pro-OMe)" target_of_assay="tobacco bacterial rot (Pectobacterium carotovorum)" recorded_value=50
compound="COC(=O)[C@@H]1CCCN1C(=O)[C@@H](CCC(N)=O)NC(=O)OC(C)(C)C [Compound 54] (Boc-[dQ]-Pro-OMe)" target_of_assay="tobacco bacterial rot (Pectobacterium carotovorum)" recorded_value=60
compound="COC(=O)[C@@H]1CCCN1C(=O)[C@H]1CCCN1C(=O)OC(C)(C)C [Compound 55] (Boc-[dP]-Pro-OMe)" target_of_assay="tobacco bacterial rot (Pectobacterium carotovorum)" recorded_value=36
compound="COC(=O)[C@@H]1CCCN1C(=O)[C@@H](Cc1ccccc1)NC(=O)OC(C)(C)C [Compound 59] (Boc-[dF]-Pro-OMe)" target_of_assay="tobacco bacterial rot (Pectobacterium carotovorum)" recorded_value=25
compound="COC(=O)[C@@H]1CCCN1C(=O)[C@@H](CCSC)NC(=O)OC(C)(C)C [Compound 63] (Boc-[dM]-Pro-OMe)" target_of_assay="tobacco bacterial rot (Pectobacterium carotovorum)" recorded_value=52
compound="COC(=O)[C@@H]1CCCN1C(=O)[C@@H](C)NC(=O)OC(C)(C)C [Compound 51] (Boc-[dA]-Pro-OMe)" target_of_assay="tobacco bacterial rot (Pectobacterium carotovorum)" recorded_value=68
compound="COC(=O)[C@H]1CCCN1C(=O)[C@@H](NC(=O)OC(C)(C)C)C(C)C [Compound 49] (Boc-Val-[dP]-OMe)" target_of_assay="tobacco bacterial rot (Pectobacterium carotovorum)" recorded_value=0
compound="COC(=O)[C@H]1CCCN1C(=O)[C@H](CCCCNC(=O)OC(C)(C)C)NC(=O)OC(C)(C)C [Compound 48] (Boc-Lys(Boc)-[dP]-OMe)" target_of_assay="tobacco bacterial rot (Pectobacterium carotovorum)" recorded_value=50
compound="COC(=O)[C@@H]1CCCN1C(=O)[C@H](NC(=O)OC(C)(C)C)C(C)C [Compound 56] (Boc-[dV]-Pro-OMe)" target_of_assay="tobacco bacterial rot (Pectobacterium carotovorum)" recorded_value=40
compound="CSC(=O)c1cccc2nnsc12 [BTH, reference compound]" target_of_assay="tobacco bacterial rot (Pectobacterium carotovorum)" recorded_value=25
compound="COC(=O)[C@@H]1CCCN1C(=O)[C@@H](CO)NC(=O)OC(C)(C)C [Compound 60] (Boc-[dS]-Pro-OMe)" target_of_assay="tobacco bacterial rot (Pectobacterium carotovorum)" recorded_value=56

* * *

tested on: tobacco bacterial rot (Pectobacterium carotovorum); experiment: Suppression of tobacco bacterial rot; type: in vivo, Pectobacterium carotovorum SCC1; details: Table 4, tobacco, 10 ppm
Square brackets hold non-standard residues; d marks the D form. Peptide text beside a SMILES is read from it. * marks the point of attachment. Boc = CC(C)(C)OC(=O)*
Here the recorded Lesion outbreak rate is given for each entry.
quantity kind: Lesion outbreak rate (%)

compound="COC(=O)[C@H]1CCCN1C(=O)CNC(=O)OC(C)(C)C [Compound 38] (Boc-Gly-[dP]-OMe)" measurement_unit=% recorded_value=80
compound="COC(=O)[C@@H]1CCCN1C(=O)[C@H](Cc1ccc(O)cc1)NC(=O)OC(C)(C)C [Compound 32] (Boc-Tyr-Pro-OMe)" measurement_unit=% recorded_value=30
compound="COC(=O)[C@@H]1CCCN1C(=O)[C@H](CCCCNC(=O)OC(C)(C)C)NC(=O)OC(C)(C)C [Compound 28] (Boc-Lys(Boc)-Pro-OMe)" measurement_unit=% recorded_value=80
compound="COC(=O)[C@H]1CCCN1C(=O)[C@@H]1CCCN1C(=O)OC(C)(C)C [Compound 33] (Boc-Pro-[dP]-OMe)" measurement_unit=% recorded_value=38
